# credit: patent US6887879B2

system: HIV-1IIIB; experiment: Anti-HIV-1 antiviral assay, laboratory strain HIV-1IIIB, RT activity in culture supernatants; conditions: Human immunodeficiency virus 1, Jurkat, read-out: EC50, mean values ± SD
Assignment: determine reported pEC50 for the given compounds.
Please keep in mind that pEC50 is minus log10 of the molar concentration; only the number is needed.

// query # query: pEC50 of entry Nc1nc(N)c2ncn([C@H]3CO[C@@H](CO)O3)c2n1 [DAPD, (−)- -D-2,6-diaminopurine-1,3-dioxolane]
// result 5.86

// query Same thing, different compound: Cc1cn([C@H]2C[C@H](N=[N+]=[N-])[C@@H](CO)O2)c(=O)[nH]c1=O [AZT, zidovudine, reference compound]
// result 7.96

// query Same for Nc1ccn([C@@H]2CS[C@H](CO)O2)c(=O)n1 [lamivudine, reference compound]
// result 6.28

// query Can you handle Nc1nc2c(ncn2[C@H]2CO[C@@H](CO)O2)c(=O)[nH]1 [DXG, (−)-β-D-1,3-dioxolane guanine] next?
// result 6.47
